// values below are reported Growth Rate
Test system: HEK-293T
Experiment: Incucyte cell viability with HEK293T; also: filed as whole numbers so only -1 and 0 and 1 occur
Assay type: toxicity, cell-based
Conditions: human, 12 h, 10 µM, compound concentration 10 uM, replicate number 1, timepoint 12 hours

Example results:
Cn1cc(C2=C(c3cn(C4CCN(Cc5ccccn5)CC4)c4ccccc34)C(=O)NC2=O)c2ccccc21 | 0
Cc1c(OCc2cccc(-c3ccc(C(=O)O)cc3)c2)cc2c(c1C)C(=O)C(C1CCCC1)C2 (stereo not drawn) | 0

Could you share what Growth Rate was measured for `Cn1cc(-c2[nH]c3cc(NC(=O)[C@H](N)C4CCCCC4)cc4c3c2C=NNC4=O)cn1` , tested on HEK-293T?
0

Could you share what Growth Rate was measured for `O=C(c1ccc(F)cc1)N1CC(COc2ccc(Br)cc2)(C(=O)O)C1` , tested on HEK-293T?
1

Could you share what Growth Rate was measured for `Cc1nc(C(=O)N2CCC[C@H]2Cc2nnc(-c3ccccc3)o2)c(-c2ccccc2F)s1` , tested on HEK-293T?
0
